- TESTED SYSTEM: CaLsb1
- TEST: SPOT peptide array binding signal intensity (averaged, normalized) (arbitrary units (background-subtracted, floor 0; scale differs between SH3 domains)); higher = stronger binding of the SH3 domain to the peptide
ENDPOINT LABEL: SPOT peptide array binding signal intensity
Lab note: record the figure alone, no unit after it.

INSERT INTO measurements (binder, readout_value) VALUES
  ('MTKTPETSPPKRPMG', 0.5);

Give reported SPOT peptide array binding signal intensity value for TKPTPPPKPSHLKPK
0.5
